Test system: PGE2 in IL-1β treated A549 cells
test: PGE2 generation during chronic IL-1β treatment
Type: cell-based, human
experimental-setup: read-out: concentration to cause 50% inhibition of PGE2; in the presence of exogenous AA (5 μM, 5 min) after co-incubation with IL-1β
endpoint: pIC50
Lab note — pIC50 values are minus log10 of concentrations in M.

Q. Which pIC50 reading was recorded for the molecule CC(C)=CCC/C(C)=C/CC/C(C)=C/CC[C@]1(C)CCc2cc(O)c(C)c(C)c2O1 [γ-TE, γ-tocotrienol] ?
A. 5.00

* * *

test-target: COX-2 (Homo sapiens, UniProt P35354)
test: COX-2 activity in intact cells
Assay type: cell-based
Set-up: A549 cells were pre-treated with 0.5-1 ng/mL of IL-1β- for 6 hours to induce COX-2 expression; endogenous in cells
experimental-setup: intact cells, COX-2 pre-induced by IL-1β, 5 μM AA; read-out: IC50 COX-2 in A549 cells
endpoint: IC50 (µM)
Just the number in µM, nothing appended.

Cc1cc(O)cc2c1OC(C)(CCCC(C)CCCC(C)CCCC(C)C(=O)O)CC2 (centres unmarked) [13′]; 6

Q. Which IC50 reading was recorded for the molecule Cc1cc(O)cc2c1OC(C)(CCCC(C)CCCC(C)C(=O)O)CC2 (centres unmarked) [9′] ?
A. 7

* * *

test-target: COX-2 (Homo sapiens, UniProt P35354)
Sequence (P35354 18-604): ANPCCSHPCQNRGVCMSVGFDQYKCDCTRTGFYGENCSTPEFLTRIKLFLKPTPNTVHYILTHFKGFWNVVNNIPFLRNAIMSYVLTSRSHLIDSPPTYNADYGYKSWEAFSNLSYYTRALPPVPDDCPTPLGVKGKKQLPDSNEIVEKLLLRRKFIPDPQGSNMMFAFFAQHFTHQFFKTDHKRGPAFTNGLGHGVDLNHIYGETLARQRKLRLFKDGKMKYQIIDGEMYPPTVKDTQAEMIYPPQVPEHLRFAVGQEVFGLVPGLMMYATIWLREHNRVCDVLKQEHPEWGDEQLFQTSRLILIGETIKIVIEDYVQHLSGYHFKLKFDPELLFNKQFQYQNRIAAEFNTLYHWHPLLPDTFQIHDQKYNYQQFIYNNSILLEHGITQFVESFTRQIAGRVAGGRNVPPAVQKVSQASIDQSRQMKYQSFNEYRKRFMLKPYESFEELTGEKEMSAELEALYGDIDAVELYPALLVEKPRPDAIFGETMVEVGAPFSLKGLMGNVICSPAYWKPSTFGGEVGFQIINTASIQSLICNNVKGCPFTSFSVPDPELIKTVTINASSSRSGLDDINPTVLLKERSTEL
test: COX-2 inhibition with purified human enzyme (Table 3)
Assay type: biochemical
Set-up: A549 cells were pre-treated with 0.5-1 ng/mL of IL-1β- for 6 hours to induce COX-2 expression; endogenous in cells
experimental-setup: mean±SEM
pIC50: −log10 of the molar value.
endpoint: pIC50

Recorded results for 2 compounds are shown here.
Cc1c(O)cc2c(c1C)OC(C)(CCCC(C)CCCC(C)CCCC(C)C)CC2 (stereo not drawn); < 4.30
C/C(=C\CC/C(C)=C/CCC1(C)CCc2cc(O)cc(C)c2O1)CC/C=C(\C)C(=O)O (stereo not drawn); 5.01

# ---- query compound ----
Q. Which pIC50 reading was recorded for the compound Cc1cc(O)cc2c1OC(C)(CCCC(C)CCCC(C)CCCC(C)C)CC2 (stereo not drawn) ?
A. < 4.30
